B1: ZNF207 (parent)
chain: YQGGPPRPPMGMRPPVMSQGGRY

- Variants of: B1
- assayMethodText: protein stability index of a GFP-peptide fusion (GPS, HEK-293T) (PSI 1-6); higher = more stable;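 also: lentivirally expressed fusions sorted by FACS into six bins by GFP to DsRed ratio, PSI derived from sequencing read proportions per bin multiplied by bin number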
- runParameters: c terminus: native
parameter: protein stability index
Give a plain numeric answer without units written out.

Exercise: Bench note: what protein stability index did YQGGPPRPPMGMRPPVYSQGGRY show?
Solution: 1.75

Exercise: What about this variant? YQGGPPRPPMGMRPPVFSQGGRY
Solution: 2.17

Exercise: What about this variant? YQGGPHRPPMGMRPPVMSQGGRY
Solution: 2.23

Exercise: What about this variant? YQGGPPRPPMGMRPNVMSQGGRY
Solution: 1.72

---
Exercise: Bench note: what protein stability index did YQGGPPRPPMGMRPHVMSQGGRY show?
Solution: 2.71

Exercise: What about this variant? YQGWPPRPPMGMRPPVMSQGGRY
Solution: 3.5

Exercise: What about this variant? YQGGPPRHPMGMRPPVMSQGGRY
Solution: 2.98

Exercise: What about this variant? YQGCPPRPPMGMRPPVMSQGGRY
Solution: 2.52

Exercise: What about this variant? YQGGPPRPPMGMWPPVMSQGGRY
Solution: 1.79

Exercise: What about this variant? YQGGPPRPPMGMRPVVMSQGGRY
Solution: 3.12

Exercise: What about this variant? YQGGGPRPPMGMRPPVMSQGGRY
Solution: 2.99

Exercise: What about this variant? YQGGPPRPPMGMRPTVMSQGGRY
Solution: 1.61

Exercise: What about this variant? YQGGLPRPPMGMRPPVMSQGGRY
Solution: 2.34

Exercise: What about this variant? YQGGPPRPPMGVRPPVMSQGGRY
Solution: 2.79

Exercise: What about this variant? YQGGPPGPPMGMRPPVMSQGGRY
Solution: 2.8
